// provenance: patent US6303749A

Target: human melanocortin-3 (MC-3) receptor (human, UniProt P41968)
Assay: displacement of 125I-AGRP, membranes of HEK 293 cells with hMC3 (value column 4)
Square brackets hold non-standard residues; d marks the D form. Ends that are not written are not given here. Abu = CC[C@H](N)C(=O)O
experimentalReadout: IC50 (nM)
Return type: number; implicit unit nM.

Past entries and their recorded results:
[Abu][Abu]DPCAT[Abu]YCRFFNAFCY[Abu]RKLGTAMNPCSRT (disulfide (positions not given here); not fully specified (bridges); also: disulfide pairing not given here) [peptide of SEQ ID NO:9]    700
Mkd5-AGRP (ligand) APMEGIRRPDQALLPELPGLGLRAPLKKTTAEQAEEDLLQEAQALAEVLDLQDREPRSSRRCVRLHESCLGQQVPCCDPCATCYCRFFNAFCYCRKLGTAMNPCSRT    0.7

Entry HES[Abu]LGQQVPC[Abu]DP[Abu]AT[Abu]YCRFFNAFCYCRKL (disulfide (positions not given here)) [peptide of SEQ ID NO:4] has what IC50?
90
